All figures here come from patent US20250017886A1.

# measurementNotes: Human single oral dose pharmacokinetics of creatinine (Ostojic et al. 2019)
# Assay type: in vivo
# conditionInfo: plasma, oral 3 grams creatinine given with 3 grams creatine nitrate, computed from literature data, read-out: AUC(0-120m) (converted)
parameterMeasured: AUC (ng·h/mL)
The reply should contain only the number, in ng·h/mL.

In: Requested read-out: AUC. Entry: CN1CC(=O)NC1=N [Creatinine, creatinine]
Out: 4600

---

# measurementNotes: Saturated aqueous solubility determination (HPLC)
# Format: physicochemical
# conditionInfo: thermodynamic from solid; deionized water, 25° C., 1.5 hour
Counter-ions that a name gives are not always drawn.
parameterMeasured: solubility at 1.5 h (mg/mL)
# value in mg/mL; strip the unit string

molecule: CN(CC(=O)OC(C)(C)C)C(=N)N.Cl [CtB, creatine tert-butyl ester hydrochloride]
outputUnit: mg/mL
solubility at 1.5 h: 389

molecule: CCOC(=O)CCNC(=N)N [Ethyl (α-guanido-methyl) ethonoate, ethyl (α-guanido-methyl) ethanoate]
outputUnit: mg/mL
solubility at 1.5 h: 178

In: Could you tell me which solubility at 1.5 h is on file for CCOC(=O)CN(C)C(=N)N [CEE, creatine ethyl ester hydrochloride] ?
Out: 205

---

Recorded solubility at 1.5 h, one value per entry.
# measurementNotes: Saturated aqueous solubility determination (HPLC)
# Type: physicochemical
# conditionInfo: thermodynamic from solid; deionized water, 25° C., 1.5 hour
Where a name gives a salt, the structure may show the parent alone.

These solved cases illustrate the format of a correct answer.
molecule: CCOC(=O)CNC(=O)CN(C)C(=N)N [Creatine Glycinamide Ethyl Ester HCl, creatine glycinamide ethyl ester]
solubility at 1.5 h: > 600 mg/mL
--
molecule: CN(CC(=O)OC1CCCCC1)C(=N)N [Creatine Cyclohexyl Ester Tosylate, creatine cyclohexyl ester]
solubility at 1.5 h: 15 to 20 mg/mL

In: Entry CC(C)CCOC(=O)CN(C)C(=N)N [Creatine Isopentyl Ester HCl, creatine isopentyl ester hydrochloride] has what solubility at 1.5 h?
Out: > 600 mg/mL
